- test conditions: human;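 also: human cholestatic liver injury, shown by histopathology or by peak ALT or AST elevation over alkaline phosphatase ratio below 2, value counts indexed literature reports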
metric: Hepatotoxicity (choleostasis)
Output: the number by itself.

Field: example entries. Status: answers known.
{"molecule": "COc1ccc(NS(=O)(=O)c2ccc(N)cc2)nn1", "Hepatotoxicity (choleostasis)": 2}
{"molecule": "O=C(O)CN1C(=O)c2cccc3cccc(c23)C1=O", "Hepatotoxicity (choleostasis)": 0}
{"molecule": "COc1cc(C(=S)N2CCOCC2)cc(OC)c1OC", "Hepatotoxicity (choleostasis)": 0}
{"molecule": "CC1(C)S[C@@H]2[C@H](NC(=O)[C@H](NC(=O)N3CCNC3=O)c3ccccc3)C(=O)N2[C@H]1C(=O)O", "Hepatotoxicity (choleostasis)": 0}
{"molecule": "NC[C@@H]1CC[C@@H](N)[C@@H](O[C@H]2[C@H](O)[C@@H](O[C@H]3O[C@H](CO)[C@@H](O)[C@H](N)[C@H]3O)[C@H](N)C[C@@H]2N)O1", "Hepatotoxicity (choleostasis)": 0}
{"molecule": "CC(C)Nc1ncccn1", "Hepatotoxicity (choleostasis)": 3}
{"molecule": "CN1CCN(C(c2ccccc2)c2ccccc2)CC1", "Hepatotoxicity (choleostasis)": 0}
{"molecule": "NC(=O)N1c2ccccc2C=Cc2ccccc21 [CARBAMAZEPINE]", "Hepatotoxicity (choleostasis)": 41}

Recall and state the measured Hepatotoxicity (choleostasis) for CC(=O)O[C@H]1C[C@@]2(C)[C@@H](C[C@@H](O)[C@H]3[C@@]4(C)CC[C@@H](O)[C@@H](C)[C@@H]4CC[C@@]32C)/C1=C(\CCC=C(C)C)C(=O)O . 2

Identify measured Hepatotoxicity (choleostasis) corresponding to O=c1oc2ccccc2c(O)c1Cc1c(O)c2ccccc2oc1=O 0
